# system-name: human FLAP (Homo sapiens (Human), UniProt P20292)
# Sequence (P20292 whole entry): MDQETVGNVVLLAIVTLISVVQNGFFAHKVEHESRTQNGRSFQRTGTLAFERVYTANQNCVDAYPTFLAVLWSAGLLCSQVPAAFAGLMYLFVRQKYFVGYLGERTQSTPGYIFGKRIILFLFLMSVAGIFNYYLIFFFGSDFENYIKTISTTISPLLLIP
# experimental-protocol: FLAP binding assay (HTRF format)
# condition-info: wild type FLAP, HTRF format
# Protocol: The ability of the compounds of the present invention to treat a FLAP-mediated disease and/or disorder, or associated symptoms or complications thereof, was determined using the following procedures. Binding assay data represent the average value obtained from two different assay plates, with samples run in duplicate on each plate. Human whole blood assay data represent a single replicate on an assay plate using whole blood from at least one healthy donor. Data are expressed as a HTRF ratio.
Counter-ions that a name gives are not always drawn.
measured-metric: Ki (nM)

Answered cases to consult:
Nc1cnc(-c2ccc(-c3cccnc3OC3CCC3)cc2F)cn1 [Example 405]    100
N#Cc1nc(N)cnc1-c1ccc(-c2ccccc2S(=O)(=O)C2CC2)cc1F [Example 729]    64.7
Nc1cnc(-c2ccc(-c3ccccc3Oc3ccnc(N)c3)cc2F)cn1 [Example 638]    1.4
Nc1ncc(-c2ccc(-c3ccc(C(F)(F)F)cc3CN3CCOCC3)cn2)cn1 [Example 676]    234
CC(CO)NS(=O)(=O)c1ccccc1-c1ccc(-c2cnc(N)c(C#N)n2)c(F)c1 (stereo in doubt) [Example 412]    19
CC(C)(C)NS(=O)(=O)c1ccccc1-c1ccc(-c2ccc(N)cn2)c(F)c1 [Example 427]    54
Nc1cnc(-c2ccc(-c3ccccc3Cl)cc2F)cn1 [Example 469]    250
Nc1cnc(-c2ccc(-c3ccccc3C(=O)N3CCC[C@@H](O)C3)cc2F)cn1 [Example 762]    159
Nc1cnc(-c2ccc(-c3ccc(C(F)(F)F)cc3C3=CCNCC3)cc2F)cn1 [Example 852]    118
N#Cc1nc(N)cnc1-c1ccc(-c2ccccc2S(=O)(=O)NCCO)cc1F [Example 706]    79.6

I = NC(=O)C1(S(=O)(=O)c2ccccc2-c2ccc(-c3cnc(N)nc3)c(F)c2)CCCC1 [Example 739]
II = Cc1ccnc(Oc2ccccc2-c2ccc(-c3cnc(N)cn3)c(F)c2)n1 [Example 545]
For I and II , which recorded Ki is lower? The response must carry the label of the picked entry.
II

P = Nc1cnc(-c2ccc(-c3ccccc3OCCO)cc2F)cn1 [Example 628]
Q = CCNS(=O)(=O)c1ccccc1-c1ccc(-c2cnc(N)nc2)nc1 [Example 683, trifluoroacetic acid salt]
For P and Q , which recorded Ki is lower? The response must carry the label of the picked entry.
P

---

# system-name: human FLAP (Homo sapiens (Human), UniProt P20292)
# experimental-protocol: FLAP binding assay (HTRF format)
# condition-info: human FLAP wild type, HTRF format; average of two plates, duplicates
Where a name gives a salt, the structure may show the parent alone.
measured-metric: Ki (nM)

Answered cases to consult:
Nc1cnc(-c2ccc(-c3ccccc3S(N)(=O)=O)cc2F)cn1 [Example 5]    35
N#CCCN(C1CC1)S(=O)(=O)c1ccccc1-c1ccc(-c2cnc(N)cn2)c(F)c1 [Example 172]    4

A = CCSCc1ccccc1-c1ccc(-c2cnc(N)cn2)c(F)c1 [Example 234, formic acid salt]
B = CC(C)(C)NS(=O)(=O)c1ccccc1-c1ccc(-c2ccc(N)nc2)c(F)c1 [Example 342]
C = Nc1ncc(-c2ccc(-c3ccccc3S(=O)(=O)N3CC4(COC4)C3)cc2F)cn1 [Example 312]
Sort entries by Ki from minimum to maximum value. Response format: the labels, sorted as the prompt asks.
B, A, C
(B: 2 nM, A: 25 nM, C: 262 nM)

P = CCN1CCCC[C@@H](NS(=O)(=O)c2ccccc2-c2ccc(-c3cnc(N)cn3)c(F)c2)C1=O [Example 27]
Q = CC(=O)NC1CCN(S(=O)(=O)c2ccccc2-c2ccc(-c3cnc(N)cn3)c(F)c2)CC1 [Example 75]
R = CC(CO)NS(=O)(=O)c1ccccc1-c1ccc(-c2cnc3[nH]ccc3n2)c(F)c1 (stereo in doubt) [Example 378]
Sort entries by Ki from minimum to maximum value. Response format: the labels, sorted as the prompt asks.
R, Q, P
(R: 1 nM, Q: 12 nM, P: 29 nM)
